System: K4 kissing-loop RNA reporter;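 note: bound reporter read as fluorescence of individual clusters on recovered sequencing chips by microscopy, with normalized cluster intensities fitted with a binding model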
Experiment: apparent KD of K4 kissing-loop reporter; higher = weaker reporter binding
Settings: Eterna round: R107; input ligand: FMN 200 uM
recorded metric: apparent KD of K4 kissing-loop reporter (µM)
Give bare numbers, in µM.

Completed entries (count: 3):
AAUAAAAUCACGGCCGCCACUGAUGCUAAUAUUGGCAGUGAUGUUGCUAUGUAUAUUUUAUUUGACAGGACCGGGUGAAUAUUUA [#24 K4 Tryptophan B Exclusion] :: 0.224
CAUUGUACACGGUGCGAAGACCCAAUGGAUACCAGCAAUACAUUAUGCCCUUGGCAGCCAAGAGUGAUGUUCGACGGACUAGAUU [theeternabot_sameState_KL_Theo_A_4] :: 0.249
UACUAUAUUCUGUCGUUUAUAUUAUUUUGUCAGGAUAUCGUUUAUUCGAGAAGGGACACUAUCUAGUGAUGUUAGAUUUUUCUUU [JR_Nu_ExcFMNA_Sub029] :: 0.0558

Each sequence below has a recorded value; state its apparent KD of K4 kissing-loop reporter.
1. AGUGAUGUUGAGUUAUGUUAGUGAAGUGAUCGAGGACCGGUACGGCCGCCACUCGAGUGAUGAGUGAGUGAUGUUUGUUUAGUGA [bvbmullin]
2. UAACUUGCAGUGAUGUUGCAAGAACUGGAUACCAGCAUGGAAACAUGCCCUUGGCAGCCAGAAGGUAUCCUCUGCAAGAGAUACA [Design1]
3. UAACUUGCAGUGAUGUUGCAAGAACUGGAUACCAGCAUGGAAACAUGCCCUUGGCAGCCAGAAGGUAUCCUACAUCACAGAUACU [Design2]

Data returned:
[0.639, 0.318, 0.22]
